The origin of these recorded values is PubChem BioAssay (NCI).

- Test system: HCC-2998 colon
- test-protocol: NCI tumour cell line growth inhibition, 48 h
Where a SMILES comes first, the peptide text is derived from it. The star is where a group is joined. Cbz = O=C(OCc1ccccc1)*; CH2Cl = ClC*
Label Satisfied for high-side TGI (at or above 20 µM) and Not satisfied for low-side TGI (below it).

• COC1(OC)C(N(C)C)=C(Cl)C(=O)/C1=C/C=O = Satisfied
• CC1(CCOCc2ccccc2)NC(=O)NC1=O (centres undefined) = Satisfied

### Prompt # check: TGI of CCCCCCc1cc2cc(C(=O)Nc3ccccc3)c(=N)oc2cc1O is greater than or equal to 20 µM
### Response Satisfied

### Prompt # check: TGI of CC(C)CC(NC(=O)OCc1ccccc1)C(=O)NC(Cc1ccccc1)C(=O)CCl (stereo not drawn) (Cbz-Leu-Phe-CH2Cl; configuration not given here) is greater than or equal to 20 µM
### Response Satisfied

### Prompt # check: TGI of COc1ccc2cc(/C=N/NC(=O)Nc3ccccc3)ccc2c1 is greater than or equal to 20 µM
### Response Satisfied

### Prompt # check: TGI of CC1(C)N=C(N)N=C(N)N1c1ccc(CCc2ccccc2)cc1 is greater than or equal to 20 µM
### Response Satisfied

### Prompt # check: TGI of NCc1ccccc1-c1c2nc(c(-c3ccccc3CN)c3ccc([nH]3)c(-c3ccccc3CN)c3nc(c(-c4ccccc4CN)c4ccc1[nH]4)C=C3)C=C2 is greater than or equal to 20 µM
### Response Satisfied

### Prompt # check: TGI of O=C(CC1(O)C(=O)N(Cc2ccccc2)c2ccc(F)cc21)c1ccc(C(=O)NCC2CCC3(CC2)OOC2(CCCCC2)OO3)cc1 (centres undefined) is greater than or equal to 20 µM
### Response Not satisfied

### Prompt # check: TGI of Cc1nc2c(nc1C)-c1[nH]c3c(c1C(=O)C2=O)CCCC3=O is greater than or equal to 20 µM
### Response Not satisfied

* * *

In this section, each of the compounds is paired with its reported TGI.
- Test system: CCRF-CEM leukemia
- test-protocol: NCI tumour cell line growth inhibition, 48 h

Worked cases, answers included:
• CCCC(=O)Nc1cc2c3c(c1)CCCN3CCC2 = > 10 µM
• COc1ccc(P2(=S)OC(C)(C)C(C)(C)O2)cc1 = > 100 µM
• CCOC(=O)NC(Nc1ccc(S(=O)(=O)Nc2nc(C)cc(C)n2)cc1)(C(=O)OCC)C(F)(F)F (stereo unspecified) = > 100 µM

Sample COC(=O)c1ccccc1/C=C1\Cc2ccc(C)c(C)c2C1=O ; TGI observed: > 100 µM

Sample Cc1cc(Cl)ccc1NC(=O)C(=O)Cc1nc2ccccc2o1 ; TGI observed: > 100 µM

Sample CCOc1ccc(NC(=O)CC#N)cc1 ; TGI observed: > 100 µM

Sample CC(=O)OC12C=CC(=O)N1c1ccccc1C(=O)O2 (stereo unspecified) ; TGI observed: > 100 µM

* * *

- Tested on: HCC-2998 colon
- test-protocol: NCI tumour cell line growth inhibition, 48 h; in the data active = GI50 below about 0.43 µM; inactive = the rest
Pick one: active, inactive

# example entries with known answers
* Cc1ncc(C(=O)Nc2ccc(CN3CCN(C)CC3)c(C(F)(F)F)c2)cc1C#Cc1cnc(N)c2ccncc12 | inactive
* Nc1c(C(=O)Nc2ccncc2)sc2nc3c(cc12)CCCCCCCC3 | inactive
* Cc1nn(-c2ccc(Cl)cc2)c2nc3c(nc12)C(=O)c1ccccc1-3 | inactive
* NCCNc1c2c(c(NCCN)c3[nH]ccc13)C(=O)c1ccccc1C2=O | active
* CC[C@H]1[C@@H]2C=C[C@@H]3[C@H]4C/C=C\C(=O)NCCC[C@@H]5NC(=O)/C(=C(O)/C=C/[C@@H]4C[C@@H]3[C@H]2C[C@H]1C)C5=O | inactive

Let's switch to this compound now.
### Prompt Per the records of this test, what outcome belongs to C=CCn1c(C)nc2ccc(Nc3nc(Nc4ccc5nc(C)n(CC=C)c5c4)c4ccccc4n3)cc21 ?
### Response inactive

* * *

- System: IGROV1 ovarian
- test-protocol: NCI tumour cell line growth inhibition, 48 h
recorded-endpoint: TGI (µM)
Please reply with the bare figure in µM and do not write the unit itself.

* Oc1[nH]c2ccccc2c1N=NC(=S)Nc1cccc(Cl)c1 | 89

IGROV1 ovarian TGI of O=C(CC1(O)C(=O)N(Cc2ccccc2)c2ccc(F)cc21)c1ccc(C(=O)NCC2CCC3(CC2)OOC2(CCCCC2)OO3)cc1 (stereo not given) is 0.62

* * *

- Tested on: HL-60(TB) leukemia
- test-protocol: NCI tumour cell line growth inhibition, 48 h
recorded-endpoint: GI50

• COc1ccc(C(=O)/C=C/c2cc(-c3cc(OC)c(OC)c(OC)c3)n[nH]2)cc1OC = 1.44 µM
• C#C[C@]1(O)CCC2C3CCc4cc(O)ccc4C3CC[C@@]21C (stereo partly specified) = 3.45 µM
• Cc1ncc(C(=O)Nc2ccc(CN3CCN(C)CC3)c(C(F)(F)F)c2)cc1C#Cc1cnc(N)c2ccncc12 = 0.79 µM
• [Cl][Hg][c]1cc[c]([Hg][Cl])o1 = 2.39 µM
• Nc1nc(/C=C\c2ccc([N+](=O)[O-])s2)nc(N2CCCC2)n1 = 5.39 µM

The record that follows has no GI50 shown yet.
Sample COc1ccc(-c2nn(-c3ccc(NC(=O)c4ccc(Cl)c(Cl)c4)cc3)cc2-c2ccncc2)cc1Cl ; GI50 observed: 2.76 µM

* * *

- System: UO-31 renal
- test-protocol: NCI tumour cell line growth inhibition, 48 h
recorded-endpoint: TGI

• COc1cc2c(c(OC)c1OC)-c1ccc(SC)c(=O)cc1C(NC=O)CC2 (stereo not given) = > 100 µM

Sample CSc1nc(Nc2cccc(C(F)(F)F)c2)c2c(N)nn(C)c2n1 ; TGI observed: > 100 µM

Sample Oc1[nH]c2ccccc2c1N=NC(=S)Nc1cccc(Cl)c1 ; TGI observed: > 100 µM

Sample COc1ccc(-c2nn(-c3ccc(NC(=O)c4ccc(Cl)c(Cl)c4)cc3)cc2-c2ccncc2)cc1Cl ; TGI observed: > 50 µM

* * *

- Tested on: RPMI-8226 leukemia
- test-protocol: NCI tumour cell line growth inhibition, 48 h
recorded-endpoint: log10 of TGI (log10 of the value in µM)
Scale: log10; quantity: TGI; unit before log: µM

• CCn1c2ccccc2c2cc(NC(=O)Nc3ccc([N+](=O)[O-])cc3C)ccc21 = 0.60
• CCOC(=O)C(Cc1ccc(CCCC(=O)NCCC(=O)Nc2ccc3nc(C)sc3c2)cc1)C(=O)OCC = 1.73
• CCOC(=O)c1nnc2c(C(=O)OCC)c3ccccc3n2c1N = 0.81
• COc1cc(-c2cc(-c3cc4c([nH]c5ccccc54)c(-c4cc(OC)c(OC)c(OC)c4)n3)cc(-c3ccccc3)n2)cc(OC)c1OC = 1.27
• O=C(Nc1nc(C23CC4CC(CC(C4)C2)C3)cs1)c1cc2ccc(O)cc2oc1=O = 1.51

The record that follows has no log10 of TGI shown yet.
RPMI-8226 leukemia log10 of TGI of Clc1ccc2[nH]cc(-c3nnnn3-c3ccccc3)c2c1 is 1.64

* * *

- System: UO-31 renal
- test-protocol: NCI tumour cell line growth inhibition, 48 h; in the data active = GI50 below about 0.43 µM; inactive = the rest
Pick one: 1 = active, -1 = inactive

- CS(=O)(=O)CCNCc1nc(-c2ccc3ncnc(Nc4ccc(OCc5cccc(C(F)(F)F)c5)cc4)c3c2)cs1: -1
- Cn1cc(-c2csc(-c3c[nH]c4ccc(F)cc34)n2)c2cnccc21: -1
- CCC(/C=C/C1OC(=O)C=CC1C)=C\C(C)C/C=C/C(C)=C/C(C)C(=O)C(C)C(O)C(C)C/C(C)=C/C(=O)O (stereo not given): 1
- COc1ccc2c(c1)C(=O)c1c-2c(N2CCN(C(=O)CNCCNCCO)CC2)nc2ccccc12: -1
- Cc1nn(-c2ccc(Cl)cc2)c2nc3c(nc12)C(=O)c1ccccc1-3: -1
- Oc1cc2cccc[n+]2c2cc(Cl)ccc12: -1

### Prompt Per the records of this test, what outcome belongs to CCSc1ncnc2c1ncn2C1OC(CO)C(O)C1O (stereo not given) ?
### Response 1

### Prompt Per the records of this test, what outcome belongs to CN1C(=O)N(C)C2C1NN=c1s/c(=C\c3ccc(Cl)cc3Cl)c(=O)n12 (stereo not given) ?
### Response -1

### Prompt Per the records of this test, what outcome belongs to O=C(CSc1nc2ccccc2nc1-c1ccccc1)Nc1ccc(F)cc1 ?
### Response -1

### Prompt Per the records of this test, what outcome belongs to Nc1nc(/C=C\c2ccc([N+](=O)[O-])s2)nc(N2CCCC2)n1 ?
### Response -1

* * *

In this section, each of the compounds is paired with its reported TGI.
- Tested on: MDA-N
- test-protocol: NCI tumour cell line growth inhibition, 48 h

Worked cases, answers included:
* CCCCNC(=S)Nc1nc(C(=O)NNC(=S)Nc2ccccc2)cs1 | > 100 µM
* CN(C)C(n1cc2c(c1)-c1ccc(Cl)cc1C(c1ccccc1F)=NC2)n1cc2c(c1)-c1ccc(Cl)cc1C(c1ccccc1F)=NC2 | 52.7 µM
* N#Cc1c(N)n(-c2cccc(C(=O)O)c2)c(=O)c2cc([N+](=O)[O-])ccc12 | > 100 µM
* CCOC(=O)C12OC(CCC1=O)C(C(=O)OC)=C2C(=O)OC (stereo not given) | > 10 µM

Sample COc1ccc(/C=C2\N=C(SC)N(CN3CCOCC3)C2=O)cc1 ; TGI observed: > 100 µM
